- Assay Overview: chemical genetic growth profiling, strain panel (AID 1159580);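 note: tested at 20 µM; growth read once vehicle control cultures reached saturation at 30 °C; 1 = growth at the plate median or of vehicle wells; lower values mean less growth of the strain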
- Experimental Setup: S. cerevisiae deletion strains, growth OD, locus YJL187C, strain SWE1 (second series), stronger effect = lower value
In all, about 5,500 compounds went through this assay and about 2,000 (36%) were called active. Inconclusive results (about 18%) are left out. Some of the results follow.
Quick reference: normalized growth of the listed items.

# Compound, normalized growth
records = [
    ("CCN(CC)CCNC(=O)c1cc(S(C)(=O)=O)ccc1OC", "0.999 (inactive)"),
    ("Nc1ncnc2c1ncn2[C@@H]1O[C@H](CO)[C@@H](O)[C@H]1O", "0.968 (inactive)"),
    ("C=CC(C1=CC(=O)C(OC)=CC1=O)c1ccc(OC)cc1 (stereo unspecified)", "0.933 (inactive)"),
    ("O=C(O)CF", "1.01 (inactive)"),
    ("CC(C)N(C(=O)SCC(Cl)=C(Cl)Cl)C(C)C", "1.01 (inactive)"),
    ("C=CC(C1=CC(=O)C=CC1=O)c1ccccc1 (stereo unspecified)", "0.937 (inactive)"),
    ("CC(C)(C)NC[C@@H](O)COc1nsnc1N1CCOCC1", "0.99 (inactive)"),
    ("CC(C)(C)NCC(O)c1ccccc1Cl (stereo unspecified)", "0.994 (inactive)"),
]

Recorded normalized growth of `C=C(CC)C(=O)c1ccc(OCC(=O)O)c(Cl)c1Cl` , please.
0.968 (inactive)

Recorded normalized growth of O=C1O[C@H](C(O)CO)C(O)=C1O (stereo partly specified) , please.
0.999 (inactive)

Recorded normalized growth of CC1(C)C(O)CC(O)C2(C)C1CC(O)C1(C)C2CCC2(C)C(c3ccoc3)CC3OC321 (stereo unspecified) , please.
0.996 (inactive)

Recorded normalized growth of `c1ccc2c3c([nH]c2c1)CNCC3` , please.
0.997 (inactive)

Recorded normalized growth of `CN[C@H](CC(=O)O)C(=O)O` , please.
1 (inactive)

Recorded normalized growth of COc1ccccc1OCCNCC(O)COc1cccc2[nH]c3ccccc3c12 (stereo unspecified) , please.
1.01 (inactive)

====

- Assay Overview: chemical genetic growth profiling, strain panel (AID 1159580)
- Experimental Setup: S. cerevisiae deletion strains, growth OD, locus YAL021C, strain ccr4, stronger effect = lower value
About 2,000 (36%) of roughly 5,500 compounds were called active. Roughly 18% stayed inconclusive and do not appear here. This is one part of the list.
Quick reference: normalized growth of the listed items.
No unit in the answer, only the number.

# Compound, normalized growth
data = [
    ("C/C=C/c1ccc2c(c1)OCO2", 1.02),
    ("OC[C@@H](O)[C@@H](O[C@@H]1O[C@H](CO)[C@@H](O)[C@H](O)[C@H]1O)[C@H](O)[C@@H](O)CO", 0.998),
    ("CCN(CC)CCNC(=O)c1cc(S(C)(=O)=O)ccc1OC", 0.979),
    ("Nc1ncn([C@@H]2O[C@H](CO)[C@@H](O)[C@H]2O)c(=O)n1", 1.01),
    ("CNC[C@@H](O)c1ccc(O)c(O)c1", 1),
]

Recorded normalized growth of `COc1cc(OC)c2c(=O)c(-c3ccccc3)c(C)oc2c1OC` , please.
0.984

Recorded normalized growth of `CCOC(=O)c1oc2c(OC)c(O)cc(O)c2c(=O)c1-c1cc(OC)c(OC)c(OC)c1` , please.
0.985

Recorded normalized growth of O=C1C=CC2=C3c4cc(O)c(O)cc4CC3(O)COC2=C1O (configuration not stated) , please.
0.933

Recorded normalized growth of `Nc1ccc(S(=O)(=O)Nc2ccccn2)cc1` , please.
1

Recorded normalized growth of `O=C1C=CC2=C3c4cc(O)c(O)cc4C[C@@]3(O)COC2=C1` , please.
0.965

Recorded normalized growth of CC1(C)C(C(Cl)Cl)C2(Cl)C(Cl)C(Cl)C1(Cl)C2(Cl)Cl (configuration not stated) , please.
1.07

Recorded normalized growth of NCC(O)c1ccc(O)cc1 (configuration not stated) , please.
1.01

====

- Assay Overview: chemical genetic growth profiling, strain panel (AID 1159580)
- Experimental Setup: S. cerevisiae deletion strains, growth OD, locus YPL240C, strain hsp82, stronger effect = lower value
The whole screen tested about 5,500 compounds, of which about 2,000 (36%) were called active. About 18% were inconclusive and are not listed. The list shows a part of the results.
Exam item: assign rule met to entries whose normalized growth is below 1 and rule not met to entries at or above 1. Note that a value of exactly 1 receives rule not met.

Dear reviewer, please state whether `C[n+]1cccc(C(=O)[O-])c1` has normalized growth strictly beneath 1.
rule met

Dear reviewer, please state whether CO[C@H]1/C=C/O[C@@]2(C)Oc3c(C)c(O)c4c(O)c(c5c(nc6cc(C)ccn65)c4c3C2=O)NC(=O)/C(C)=C\C=C\[C@H](C)[C@H](O)[C@@H](C)C(O)[C@@H](C)[C@H](OC(C)=O)[C@@H]1C (stereo partly drawn) has normalized growth strictly beneath 1.
rule not met

====

- Assay Overview: chemical genetic growth profiling, strain panel (AID 1159580)
- Experimental Setup: S. cerevisiae deletion strains, growth OD, locus YBR160W, strain CDC28, stronger effect = lower value
The whole screen tested about 5,500 compounds, of which about 2,000 (36%) were called active. Another 18% or so got no clear call; they are omitted. The list shows a part of the results.
Quick reference: normalized growth of the listed items.
No unit in the answer, only the number.

# Smiles Str, Observable, Numeric Result
data = [
    ("CC(=O)Nc1ccc([N+](=O)[O-])cc1[N+](=O)[O-]", "normalized growth", 0.918),
    ("O=S(=O)(N/N=C\\c1ccc(Cl)cc1)c1ccc(-c2ccccn2)s1", "normalized growth", 0.969),
]

We now examine a further molecule.
Recorded normalized growth of `CC(C)c1ccc(N2C=Nc3ccc(C(C)C)cc3C2)cc1` , please.
1

====

- Assay Overview: chemical genetic growth profiling, strain panel (AID 1159580);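 note: tested at 20 µM; growth read once vehicle control cultures reached saturation at 30 °C; 1 = growth at the plate median or of vehicle wells; lower values mean less growth of the strain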
- Experimental Setup: S. cerevisiae deletion strains, growth OD, locus YNL209W, strain ssb2, stronger effect = lower value
The whole screen tested about 5,500 compounds, of which about 2,000 (36%) were called active. Roughly 18% stayed inconclusive and do not appear here. This is one part of the list.
Quick reference: normalized growth of the listed items.
No unit in the answer, only the number.

Answered cases to consult:
# Compound, Numeric Result
measured = [
    ("CCN(CC)CCOc1ccc2c(c1)C(=O)c1cc(OCCN(CC)CC)ccc1-2", 0.976),
    ("CCCC(C)C1(CC)C(=O)N=C(S)NC1=O (centres undefined)", 0.982),
    ("C=CC(C1=CC(=O)C=CC1=O)c1ccccc1 (centres undefined)", 0.996),
    ("CC(=O)O[C@@H]1C[C@@]2(C)[C@H](c3ccoc3)C[C@H]3O[C@]32[C@]2(C)C(=O)C(O)=C3C(C)(C)C(=O)C=C[C@]3(C)C12 (some centres undefined)", 0.974),
    ("N[C@@H](Cc1ccc(O)c(O)c1)C(=O)O", 1.01),
]

Recorded normalized growth of `C[n+]1cccc(C(=O)[O-])c1` , please.
0.975

Recorded normalized growth of CCCC1O[C@@H]2CC3C4CCC5=CC(=O)C=CC5(C)C4[C@@H](O)CC3(C)[C@]2(C(=O)CO)O1 (some centres undefined) , please.
1.02

====

- Assay Overview: chemical genetic growth profiling, strain panel (AID 1159580);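 note: tested at 20 µM; growth read once vehicle control cultures reached saturation at 30 °C; 1 = growth at the plate median or of vehicle wells; lower values mean less growth of the strain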
- Experimental Setup: S. cerevisiae deletion strains, growth OD, locus YJR043C, strain POL32
Hit rate of the full screen: of about 5,500 compounds, about 2,000 (36%) were called active. Roughly 18% stayed inconclusive and do not appear here. Rule as the data show it: active = normalized growth mostly below about 0.91 (no sharp cut-off); inconclusive = no clear call, values can overlap the other calls; inactive = mostly above about 0.92. Some of the results follow.
// allowed return values: active, inactive

Assay outcome for `Cc1occc(=O)c1/C=C/O` : what was it?
inactive

====

- Assay Overview: chemical genetic growth profiling, strain panel (AID 1159580);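 note: tested at 20 µM; growth read once vehicle control cultures reached saturation at 30 °C; 1 = growth at the plate median or of vehicle wells; lower values mean less growth of the strain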
- Experimental Setup: S. cerevisiae deletion strains, growth OD, locus YJL187C, strain SWE1
Out of some 5,500 compounds screened, about 2,000 (36%) were called active. Another 18% or so got no clear call; they are omitted. Cut-off read from the data, not from the text of the source: active = normalized growth mostly below about 0.91 (no sharp cut-off); inconclusive = no clear call, values can overlap the other calls; inactive = mostly above about 0.92. Some of the results follow.
// allowed return values: 1 (active), 0 (inactive)

Before answering, review these 10 worked examples.
# Compound, Assigned Category
records = [
    ("C=C(CC)C(=O)c1ccc(OCC(=O)O)c(Cl)c1Cl", 0),
    ("Nc1ncn([C@@H]2O[C@H](CO)[C@@H](O)[C@H]2O)c(=O)n1", 0),
    ("Nc1ccccc1SCC(=O)Nc1c(F)cccc1F", 0),
    ("O=C(NC(=O)c1c(F)cccc1F)Nc1ccc(Cl)cc1", 0),
    ("Cc1[nH]ncc1-c1ccccc1", 0),
    ("CCOC(=O)c1oc2c(OC)c(O)cc(O)c2c(=O)c1-c1cc(OC)c(OC)c(OC)c1", 0),
    ("O=C(O)c1ccccc1Nc1cccc(C(F)(F)F)c1", 1),
    ("CC1(C)C(C(Cl)Cl)C2(Cl)C(Cl)C(Cl)C1(Cl)C2(Cl)Cl (stereo not given)", 0),
    ("OC[C@@H](O)[C@@H](O[C@@H]1O[C@H](CO)[C@@H](O)[C@H](O)[C@H]1O)[C@H](O)[C@@H](O)CO", 0),
    ("O=C1C=CC2=C3c4cc(O)c(O)cc4CC3(O)COC2=C1O (stereo not given)", 0),
]

Assay outcome for `O=C1C=CC2=C3c4cc(O)c(O)cc4C[C@@]3(O)COC2=C1` : what was it?
0

Assay outcome for `CC1CCN(C(=O)CC#N)CC1` : what was it?
0

Assay outcome for `COC(=O)c1ccc(-c2ccc(Cl)cc2)s1` : what was it?
0

Assay outcome for `Oc1c(I)cc(I)c2cccnc12` : what was it?
1

Provenance of the data: PubChem BioAssay AID1159580
